experiment description: Clearance in BALB/C mouse at 5 mg/kg, iv by LC-MS/MS analysis
Assay type: ADME, organism-based
test conditions: in vivo
recorded metric: clearance (mL/min/kg)
State the answer as a number, implicitly in mL/min/kg.

What does the data say about its clearance? Entry: O=S(=O)(Oc1cccc2ccccc12)C1CC2OC1C(c1ccc([Se]c3ccccc3)cc1)=C2c1ccc(O)cc1 (stereo unspecified)
52.7

====

experiment description: Half life in BALB/C mouse at 5 mg/kg, iv by LC-MS/MS analysis
Format: ADME, organism-based
test conditions: in vivo
recorded metric: half-life (h)
State the answer as a number, implicitly in h.

What does the data say about its half-life? Entry: O=S(=O)(Oc1cccc2ccccc12)C1CC2OC1C(c1ccc([Se]c3ccccc3)cc1)=C2c1ccc(O)cc1 (stereo unspecified)
4.65

# credit: ChEMBL document CHEMBL5154927
